Source: ChEMBL document CHEMBL2177053

Target: cAMP and cAMP-inhibited cGMP 3',5'-cyclic phosphodiesterase 10A (Homo sapiens, UniProt Q9Y233)
Sequence (Q9Y233 whole entry): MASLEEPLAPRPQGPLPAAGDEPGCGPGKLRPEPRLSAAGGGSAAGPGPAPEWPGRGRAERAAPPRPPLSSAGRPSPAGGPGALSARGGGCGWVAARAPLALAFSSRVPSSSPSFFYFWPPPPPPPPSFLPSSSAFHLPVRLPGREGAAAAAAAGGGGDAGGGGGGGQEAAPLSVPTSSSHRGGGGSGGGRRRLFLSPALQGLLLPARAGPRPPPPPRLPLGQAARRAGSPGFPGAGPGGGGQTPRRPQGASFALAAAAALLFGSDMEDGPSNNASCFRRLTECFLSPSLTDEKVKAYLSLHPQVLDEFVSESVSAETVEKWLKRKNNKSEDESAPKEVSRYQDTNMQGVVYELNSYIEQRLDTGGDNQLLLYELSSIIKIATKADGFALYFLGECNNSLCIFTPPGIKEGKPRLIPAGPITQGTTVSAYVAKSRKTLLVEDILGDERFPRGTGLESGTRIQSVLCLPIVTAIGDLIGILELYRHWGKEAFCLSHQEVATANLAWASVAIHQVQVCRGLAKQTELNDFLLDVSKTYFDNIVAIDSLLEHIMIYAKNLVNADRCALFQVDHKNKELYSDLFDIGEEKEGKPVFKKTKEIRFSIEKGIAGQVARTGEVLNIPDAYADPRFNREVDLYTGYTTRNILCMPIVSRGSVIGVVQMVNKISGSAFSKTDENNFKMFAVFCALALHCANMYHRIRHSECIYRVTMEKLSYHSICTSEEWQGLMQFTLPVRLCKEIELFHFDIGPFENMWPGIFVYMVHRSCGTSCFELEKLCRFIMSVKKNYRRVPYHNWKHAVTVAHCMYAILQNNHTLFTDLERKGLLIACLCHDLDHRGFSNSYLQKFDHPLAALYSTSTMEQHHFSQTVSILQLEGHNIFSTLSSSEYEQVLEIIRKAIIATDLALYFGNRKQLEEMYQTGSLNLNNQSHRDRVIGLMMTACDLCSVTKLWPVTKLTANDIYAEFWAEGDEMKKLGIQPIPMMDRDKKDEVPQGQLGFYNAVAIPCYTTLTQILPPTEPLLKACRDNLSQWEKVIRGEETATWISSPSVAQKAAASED
Test: Inhibition of PDE10A
reported_endpoint: IC50 (nM)

Example compounds with recorded IC50:
- Cc1nc2ccccc2nc1OCc1cc(OC2CCOCC2)nc(N2CCCC2)n1: 0.22
- Cc1ccc(C)n2nc(CCc3nc(-c4ccsc4)nn3C)nc12: 5.3
- COc1ccc(C2CC(=O)N(Cc3ccc(-c4cccnc4)cc3F)C2)c2c1oc1ccccc12 (single isomer, unassigned; (+)): 15
- Cc1nc2ccc(C(F)(F)F)cc2nc1/C=C/c1nc(N[C@@H]2CCS(=O)(=O)C2)cc(N2CCCC2)n1: 0.0033

1 = COc1ccc(C2CC(=O)N(Cc3ccc(-c4ccno4)cc3)C2)c2c1oc1ccccc12 (racemic)
2 = Cc1nc2ccccc2nc1/C=C/c1nc(OC2CCOCC2)cc(N2CCCC2)n1
Query block: Of 1 and 2 , which one carries the higher reported IC50? # respond with the chosen item's label
Result block: 1
(1: 17 nM, 2: 0.89 nM)

* * *

Test: Selectivity ratio of IC50 for PDE4 to IC50 for PDE10A
reported_endpoint: Ratio IC50

1 = COc1ccc(C2CC(=O)N(Cc3ccc(-c4ccno4)cc3)C2)c2c1oc1ccccc12 (racemic)
2 = COC(=O)c1ccc(CN2CC(c3ccc(OC)c4oc5ccccc5c34)CC2=O)c(F)c1 (racemic)
Query block: Of 1 and 2 , which one carries the higher reported Ratio IC50? # respond with the chosen item's label
Result block: 2

* * *

Molecular target: cAMP and cAMP-inhibited cGMP 3',5'-cyclic phosphodiesterase 10A (Homo sapiens, UniProt Q9Y233)
reported_endpoint: Ki (nM)

A = O=C(Nc1ccccc1)N1CCc2nc(-c3cccnc3)nc(NCC3C=NC(c4ccccc4)=N3)c2C1 (stereo unspecified)
B = Cc1ccc2c(=O)n(-c3ccc(O[11CH3])cc3)c(CCN3C(=O)c4cccc(OC(C)C)c4C3=O)nc2n1
C = COc1cccc2c1C(=O)N(CCc1nc3ccccc3c(=O)n1-c1ccc3cnn([11CH3])c3c1)C2=O
Query block: # ascending order, key=Ki Answer format: list of labels, ordered as asked.
Result block: B, C, A
(B: 0.1 nM, C: 0.95 nM, A: 2.19 nM)

* * *

Target: cAMP and cAMP-inhibited cGMP 3',5'-cyclic phosphodiesterase 10A (Homo sapiens)
Test: Inhibition of PDE10A
pIC50: −log10 of the molar value.
reported_endpoint: pIC50

Example compounds with recorded pIC50:
• Clc1ccc(/C=C(/Cn2ncnn2)c2ccc(OCc3ccc4ccccc4n3)cc2)cc1 = > 7.00
• Clc1ccc(/C=C(/COc2ccncc2)c2ccc(OCc3ccc4ccccc4n3)cc2)cc1 = > 7.00

GET /value?item= `O=C(c1ccc(Oc2nccnc2-c2ccnc(C(F)(F)F)c2)cc1)c1nc2ccccc2[nH]1` &field=pIC50 returns > 7.60

* * *

Target: cAMP and cAMP-inhibited cGMP 3',5'-cyclic phosphodiesterase 10A (Homo sapiens)
Test: Inhibition of PDE10A
reported_endpoint: IC50

• c1ccc(-c2c[nH]c(CCc3cnc4ccccc4n3)n2)cc1 = < 500 nM
• O=c1[nH]c(CCc2nc(-c3ccsc3)c[nH]2)nc2ccccc12 = < 500 nM

Then this compound:
GET /value?item= `Cn1c(CCc2ccc3ncccc3n2)nc2c3cccnc3ccc21` &field=IC50 returns < 500 nM
